The following compounds are listed with their measured CC50 values.
System: MDBK cells
Kindly answer with a numeric value in µM, unit omitted.

Chemical structure	Unit text	CC50
CC1(C)O[C@H]1[C@H]1C[C@@H]([C@@H]2CC[C@]3(C)C4=CC[C@H]5C(C)(C)C(=O)CC[C@]5(C)[C@H]4CC[C@@]23C)[C@H](O)O1	µM	16

Next compound, CC50 to be filled in.
Record lookup: for MDBK cells, what CC50 belongs to C/C=C(\C)C(=O)O[C@@H]1CC[C@]2(C)[C@H]3CC[C@@]4(C)[C@@H]([C@@H]5C[C@H]([C@@H]6OC6(C)C)O[C@H]5O)CC[C@]4(C)C3=CC[C@H]2C1(C)C ?
37

----------
Test: in vitro
Details: human
Property: CC50 (µM)
Kindly answer with a numeric value in µM, unit omitted.

Compound	CC50 / µM
O=C1Nc2ccc(Cl)cc2[C@@](C#CC2CC2)(C(F)(F)F)O1 [Efavirenz, reference compound]	40

Any idea what CC50 was measured for COC(=O)[C@H](CCC=C(C)C)[C@@H]1[C@@H](O)C[C@]2(C)C3=CC[C@H]4C(C)(C)C(=O)CC[C@]4(C)[C@H]3CC[C@@]12C [Compound 2, methyl kulonate] ?
35

----------
Tested on: WNV
Assay: microbe, parasite or virus in culture
Type: cell-based, west nile virus
Conditions: West Nile virus, BHK-21, read-out: EC50 WNV
Property: EC50 (µM)
Kindly answer with a numeric value in µM, unit omitted.

Any idea what EC50 was measured for C[C@@]1(O)[C@H](O)[C@@H](CO)O[C@H]1n1cnc2c(=O)[nH]c(N)nc21 [2’-C-methyl-guanosine, reference compound] ?
1

----------
Please consider the recorded CC50 for BHK-21 cells in what follows.
Kindly answer with a numeric value in µM, unit omitted.

Chemical structure	CC50 (µM)
CC1(C)O[C@H]1[C@H]1C[C@@H]([C@@H]2CC[C@]3(C)C4=CC[C@H]5C(C)(C)C(=O)CC[C@]5(C)[C@H]4CC[C@@]23C)[C@H](O)O1	50

Next compound, CC50 to be filled in.
Any idea what CC50 was measured for C/C=C(\C)C(=O)O[C@@H]1CC[C@]2(C)[C@H]3CC[C@@]4(C)[C@@H]([C@@H]5C[C@H]([C@@H]6OC6(C)C)O[C@H]5O)CC[C@]4(C)C3=CC[C@H]2C1(C)C ?
20

----------
Test: in vitro
Details: cattle (Bos taurus)
The following compounds are listed with their measured CC50 values.

Compound	CC50
COC(=O)[C@H](CCC=C(C)C)[C@@H]1[C@@H](O)C[C@]2(C)C3=CC[C@H]4C(C)(C)C(=O)CC[C@]4(C)[C@H]3CC[C@@]12C [Compound 2, methyl kulonate]	85 µM

Next compound, CC50 to be filled in.
Any idea what CC50 was measured for C[C@@]1(O)[C@H](O)[C@@H](CO)O[C@H]1n1cnc2c(=O)[nH]c(N)nc21 [2’-C-methyl-guanosine, reference compound] ?
> 100 µM

----------
Assay: in vitro
Settings: hamster (Mesocricetus auratus)
Property: CC50 (µM)
Kindly answer with a numeric value in µM, unit omitted.

Any idea what CC50 was measured for C[C@@]1(O)[C@H](O)[C@@H](CO)O[C@H]1n1cnc2c(=O)[nH]c(N)nc21 [2’-C-methyl-guanosine, reference compound] ?
80

meta.source: paper PMC4612778
